I'd be grateful if you could share measured IC50 for these entries.
target: human TRPM8 (Homo sapiens); construct: expressed in transfected cells; host or cells: Chinese hamster ovary (CHO) cells, T-REx tetracycline-inducible expression system (Invitrogen); co-transfected with pcDNA3.1 aequorin; assay: Luminescence readout assay for measuring intracellular calcium (aequorin, CHO cells expressing human TRPM8; icilin, L-menthol or cold activation); assay type: cell-based; conditions: CHO cells expressing human TRPM8, icilin activation (1 μM), aequorin luminescence; read-out: hTRPM8 IC50
Where a name gives a salt, the structure may show the parent alone.
Write the value in nM as a bare number.

Request: Reported IC50, compound O=C(N[C@]1(c2ccc(OC(F)(F)F)c(F)c2)CCOc2cccnc21)c1cnsc1 : ____
Result: 152

Request: What does the record list as IC50 for Cn1cc2c(C(=O)N[C@]3(c4ccc(OC(F)(F)F)cc4)CCOc4cccnc43)cccc2n1 [Example 264, formate] ?
Result: 74

Request: Report IC50 for O=C(N[C@]1(c2ccc(-c3cnc(Cl)nc3)cc2)CCOc2cccnc21)c1ccc(F)cc1 please.
Result: 122

Request: Entry Cn1ncc2ccc(C(=O)N[C@]3(c4ccc(OC(F)(F)F)cc4)CCOc4cccnc43)cc21 [Example 263, formate] has what IC50?
Result: 95

Request: State the recorded IC50 for this entry: COc1ncccc1-c1ccc([C@@]2(NC(=O)c3ccc(F)cc3)CCOc3cccnc32)cc1
Result: 113

Request: Item CCOC(=O)c1ncc(C(=O)N[C@]2(c3ccc(OC(F)(F)F)c(F)c3)CCOc3cccnc32)[nH]1 has what recorded IC50?
Result: 92

---

molecular target: human TRPM8 (Homo sapiens, UniProt Q7Z2W7); construct: expressed in transfected cells; host or cells: Chinese hamster ovary (CHO) cells, T-REx tetracycline-inducible expression system (Invitrogen); co-transfected with pcDNA3.1 aequorin; assay: Luminescence readout assay for measuring intracellular calcium (aequorin, CHO cells expressing human TRPM8; icilin, L-menthol or cold activation); assay type: cell-based; conditions: CHO cells expressing human TRPM8, icilin activation (1 μM), aequorin luminescence; read-out: hTRPM8 IC50
Sequence (Q7Z2W7 whole entry): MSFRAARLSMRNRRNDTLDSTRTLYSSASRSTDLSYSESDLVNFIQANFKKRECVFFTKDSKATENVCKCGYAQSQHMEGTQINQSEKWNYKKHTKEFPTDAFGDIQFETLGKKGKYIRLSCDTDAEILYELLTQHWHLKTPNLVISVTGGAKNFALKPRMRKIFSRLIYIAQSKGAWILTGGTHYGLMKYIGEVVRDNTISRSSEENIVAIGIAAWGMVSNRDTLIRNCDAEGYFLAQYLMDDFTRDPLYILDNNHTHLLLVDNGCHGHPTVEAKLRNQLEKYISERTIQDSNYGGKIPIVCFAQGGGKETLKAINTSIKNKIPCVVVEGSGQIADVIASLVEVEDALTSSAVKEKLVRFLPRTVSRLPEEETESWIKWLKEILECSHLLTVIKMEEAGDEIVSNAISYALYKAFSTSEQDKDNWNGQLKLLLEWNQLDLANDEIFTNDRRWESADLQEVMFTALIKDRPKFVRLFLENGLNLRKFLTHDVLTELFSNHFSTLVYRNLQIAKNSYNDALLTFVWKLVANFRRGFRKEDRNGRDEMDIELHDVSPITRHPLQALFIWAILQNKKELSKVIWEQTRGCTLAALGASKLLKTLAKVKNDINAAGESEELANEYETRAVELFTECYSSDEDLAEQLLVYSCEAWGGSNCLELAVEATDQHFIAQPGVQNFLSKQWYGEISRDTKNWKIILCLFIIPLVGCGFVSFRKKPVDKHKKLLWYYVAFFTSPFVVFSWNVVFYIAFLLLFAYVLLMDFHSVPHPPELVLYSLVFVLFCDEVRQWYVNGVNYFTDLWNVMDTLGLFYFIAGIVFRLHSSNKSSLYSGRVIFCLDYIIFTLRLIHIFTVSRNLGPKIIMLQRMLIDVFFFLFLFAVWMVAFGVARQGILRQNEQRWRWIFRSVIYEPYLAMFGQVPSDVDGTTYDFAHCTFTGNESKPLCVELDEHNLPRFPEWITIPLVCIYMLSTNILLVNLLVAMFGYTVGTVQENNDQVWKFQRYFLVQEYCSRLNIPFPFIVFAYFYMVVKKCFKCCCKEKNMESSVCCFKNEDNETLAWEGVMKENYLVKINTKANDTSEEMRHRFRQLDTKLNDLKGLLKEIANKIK
Where a name gives a salt, the structure may show the parent alone.
Record form. Attribute: pIC50. Fill in for each entry.
Please report pIC50 as the negative decimal logarithm of the molar concentration, giving only the number.

Request: Which pIC50 is reported with human TRPM8 (Homo sapiens, UniProt Q7Z2W7) for this entry: O=C(N[C@]1(c2ccc(OC(F)(F)F)c(F)c2)CCOc2cccnc21)c1ccc(C(=O)O)nc1 [Example 328, trifluoroacetate] ?
Result: 5.81

Request: Observed pIC50 on human TRPM8 (Homo sapiens, UniProt Q7Z2W7) for Nc1ccc(C(=O)N[C@]2(c3ccc(OC(F)(F)F)c(F)c3)CCOc3cccnc32)nc1 , please.
Result: 8.22

Request: Given the entry COC(=O)c1ccc(NC(=O)N[C@]2(c3ccc(OC(F)(F)F)c(F)c3)CCOc3cccnc32)cn1 , what pIC50 was observed with human TRPM8 (Homo sapiens, UniProt Q7Z2W7)?
Result: 7.62

Request: What is its pIC50 for human TRPM8 (Homo sapiens, UniProt Q7Z2W7)? Entry: Cn1cncc1C(=O)N[C@]1(c2ccc(OC(F)(F)F)c(F)c2)CCOc2cccnc21 [Example 163, 2,2,2-trifluoroacetate]
Result: 6.99

Request: Notebook entry, human TRPM8 (Homo sapiens, UniProt Q7Z2W7) assay: pIC50 of COC(=O)c1cc2ccc(C(=O)N[C@]3(c4ccc(OC(F)(F)F)c(F)c4)CCOc4cccnc43)cc2[nH]1 = ?
Result: 7.35

Request: Please provide the recorded pIC50 for O=C(Nc1ccc(Cl)nc1)N[C@]1(c2ccc(OC(F)(F)F)c(F)c2)CCOc2cccnc21 , tested on human TRPM8 (Homo sapiens, UniProt Q7Z2W7).
Result: 7.44

Request: Can you look up pIC50 on human TRPM8 (Homo sapiens, UniProt Q7Z2W7) for N#Cc1ccc(-c2ccc([C@@]3(NC(=O)c4ccccc4)CCOc4cccnc43)cc2)cc1 ?
Result: 7.04

Request: Lab note: need pIC50 with human TRPM8 (Homo sapiens, UniProt Q7Z2W7) for entry O=C1CCc2cc(C(=O)N[C@]3(c4ccc(C(F)(F)F)cc4)CCOc4cccnc43)ccc2N1 , please look it up.
Result: 8.30

Request: Report pIC50 for Nc1cc(C(=O)N[C@]2(c3ccc(OC(F)(F)F)c(F)c3)CCOc3cccnc32)ccc1C(=O)O tested on human TRPM8 (Homo sapiens, UniProt Q7Z2W7).
Result: 7.92

Request: # returns recorded pIC50 (system: human TRPM8 (Homo sapiens, UniProt Q7Z2W7)) for COc1cc(C(=O)N[C@]2(c3ccc(OC(F)(F)F)c(F)c3)CCOc3cccnc32)ccc1C(=O)O
Result: 7.15

Request: For human TRPM8 (Homo sapiens, UniProt Q7Z2W7), provide pIC50 of O=C(N[C@]1(c2ccc(OC(F)(F)F)cc2F)CCOc2cccnc21)c1ccc(=O)[nH]c1 please.
Result: 6.32

Request: Request - read-out pIC50 | tested on human TRPM8 (Homo sapiens, UniProt Q7Z2W7) | molecule O=C1CCc2cc(C(=O)N[C@]3(c4ccc(OC(F)(F)F)c(F)c4)CCOc4cccnc43)ccc2N1
Result: 7.96

Request: # query: pIC50 | item O=C(N[C@]1(c2ccc(C(F)(F)F)cc2)CCOc2cccnc21)c1cncs1 | system: human TRPM8 (Homo sapiens, UniProt Q7Z2W7)
Result: 6.57

Request: Return pIC50 measured with human TRPM8 (Homo sapiens, UniProt Q7Z2W7) given this molecule: O=C(N[C@]1(c2ccc(-c3ccncc3)cc2)CCOc2cccnc21)c1ccc(F)cc1
Result: 6.55

Request: API: value(readout=pIC50, system=human TRPM8 (Homo sapiens, UniProt Q7Z2W7)) for record O=C(N[C@]1(c2ccc(OC(F)(F)F)cc2)CCOc2cccnc21)C1Cc2ccccc2N1 (stereo partly drawn) [Example 245, formate]
Result: 6.60

Request: Could you share what pIC50 was measured for Cn1cc(C(=O)N[C@]2(c3ccc(OC(F)(F)F)c(F)c3)CCOc3cccnc32)cc1C(=O)O , tested on human TRPM8 (Homo sapiens, UniProt Q7Z2W7)?
Result: 6.94

Request: Missing value: pIC50, human TRPM8 (Homo sapiens, UniProt Q7Z2W7), entry O=C(NC1(c2ccc(C(F)(F)F)nc2)CCOc2cccnc21)c1ccc2oc(=O)[nH]c2c1 (stereo not drawn) . Fill in?
Result: 7.34

Request: pIC50, test system human TRPM8 (Homo sapiens, UniProt Q7Z2W7), entry COc1cc2cc(C(=O)N[C@]3(c4ccc(OC(F)(F)F)cc4)CCOc4cccnc43)[nH]c2cn1 [Example 274, formate]
Result: 6.72

Request: Recorded pIC50 for O=C(N[C@]1(c2ccc(OC(F)(F)F)cc2)CCOc2cccnc21)c1n[nH]c2ncccc12 [Example 242, formate] with human TRPM8 (Homo sapiens, UniProt Q7Z2W7), please?
Result: 8.26

Request: Request body: readout pIC50, system human TRPM8 (Homo sapiens, UniProt Q7Z2W7), query O=C(N[C@]1(c2ccc(OC(F)(F)F)cc2)CCOc2cccnc21)c1ccc2cc[nH]c(=O)c2c1 [Example 271, formate] . Return the value.
Result: 7.80

Request: // fetch human TRPM8 (Homo sapiens, UniProt Q7Z2W7) pIC50 for O=C(N[C@]1(c2ccc(OC(F)(F)F)c(F)c2)CCOc2cccnc21)c1ccc(=O)[nH]c1
Result: 7.89

Request: Give pIC50 (human TRPM8 (Homo sapiens, UniProt Q7Z2W7)) of the following molecule: NS(=O)(=O)c1ccc(C(=O)N[C@]2(c3ccc(OC(F)(F)F)c(F)c3)CCOc3cccnc32)cc1
Result: 7.30

Request: What is its pIC50 for human TRPM8 (Homo sapiens, UniProt Q7Z2W7)? Entry: O=C(N[C@]1(c2ccc(OC(F)(F)F)cc2)CCOc2cccnc21)c1cn2ccccc2n1 [Example 239, formate]
Result: 7.46

Request: Write down the reported pIC50 of O=C(N[C@]1(c2ccc(-c3ccccc3CO)cc2)CCOc2cccnc21)c1ccc(F)cc1 , test system: human TRPM8 (Homo sapiens, UniProt Q7Z2W7).
Result: 6.30

---

target: human TRPM8 (Homo sapiens, UniProt Q7Z2W7); construct: expressed in transfected cells; host or cells: Chinese hamster ovary (CHO) cells, T-REx tetracycline-inducible expression system (Invitrogen); co-transfected with pcDNA3.1 aequorin; experiment: Luminescence readout assay for measuring intracellular calcium (aequorin, CHO cells expressing human TRPM8; icilin, L-menthol or cold activation); assay type: cell-based; details: CHO cells expressing human TRPM8, icilin activation (1 μM), aequorin luminescence; read-out: hTRPM8 IC50
Where a name gives a salt, the structure may show the parent alone.
For each entry below, report its IC50 value.
Report the value in nM with no unit label.

Request: Could you share which IC50 value was measured for O=C(N[C@]1(c2ccc(OC(F)(F)F)c(F)c2)CCOc2cccnc21)c1ccc([N+](=O)[O-])cn1 ?
Result: 51

Request: Could you share which IC50 value was measured for CCOC(=O)c1nc(C(=O)N[C@]2(c3ccc(OC(F)(F)F)c(F)c3)CCOc3cccnc32)cs1 ?
Result: 53

Request: May I ask what IC50 has been recorded for O=C(NC1(c2ccc(C(F)(F)F)cc2)CCCc2cccnc21)c1ccccc1 (stereo not shown) ?
Result: 143

Request: Give the measured IC50 of Cc1c(C(=O)O)cc(C(=O)N[C@]2(c3ccc(OC(F)(F)F)c(F)c3)CCOc3cccnc32)n1C .
Result: 28

Request: Which IC50 reading was recorded for the molecule O=C(N[C@]1(c2ccc(-c3ccc(F)cc3)cc2)CCOc2cccnc21)c1ccc(F)cc1 ?
Result: 50

Request: What does the data say about its IC50? Entry: O=C(N[C@]1(c2ccc(OC(F)(F)F)cc2)CCOc2cccnc21)c1csc2ccccc12 [Example 268, formate]
Result: 71

Request: Can you share its IC50? I mean this molecule: O=C(N[C@]1(c2ccc(F)c(C(F)(F)F)c2)CCOc2cccnc21)c1ccc(=O)[nH]c1
Result: 89
